meta.source: paper PMC5540273

test system: PRKCE; conditions: concentration: 1 μM,replicates: in singlicate; n = 1;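 also: KINOMEscan kinase panel screen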
Outcome Measure: %Inh (%)
Note: unit % is implicit; provide only the numeric part.

{"Molecule": "O=C(NCCNc1ccnc(NCc2ccc(F)cc2)n1)c1cc2ccccc2s1 [GSK1379944]", "Experimental Target": "PRKCE", "%Inh (%)": 86}
{"Molecule": "CC(C)N1C(=O)Cc2cc(Nc3ncc(C(F)(F)F)c(NCc4cccc(S(C)(=O)=O)c4)n3)ccc21", "Experimental Target": "PRKCE", "%Inh (%)": 0}
{"Molecule": "Nc1nc(Nc2ccccc2)cc(-c2ccc3c(N)n[nH]c3c2)n1 [GSK2225749]", "Experimental Target": "PRKCE", "%Inh (%)": 0}

Look up %Inh for this molecule: CN(C)CCOc1ccc(-c2cc(-c3c[nH]nc3-c3ccccn3)ccn2)cc1 [GW835314]
11

Request: Cl.Cl.NC[C@H](Cc1ccc(C(F)(F)F)cc1)NC(=O)c1cc(Br)c(-c2ccnc3[nH]ccc23)s1 [GSK1487252]
97.5

Request: Cl.Cl.Nc1nc(-c2ccc3c(N)n[nH]c3c2)cc(N2CCCC(NC(=O)c3ccccc3)C2)n1 (stereo not shown) [GSK2286775]
10

Request: Cl.Oc1cc(-c2nc(-c3ccccc3)[nH]c2-c2ccncc2)ccc1Cl [SB-386023]
13

Request: "C[C@@H]1CCN(C(=O)CC#N)C[C@@H]1N(C)c1ncnc2[nH]ccc12"
45

Request: "Cc1cc2cn[nH]c2cc1-c1cccc2c(N)c(C(N)=O)nnc12"
4

Request: "C[C@@H](Oc1cc(-c2cnn(C3CCNCC3)c2)cnc1N)c1c(Cl)ccc(F)c1Cl"
2

Request: CN(C)CC(O)COc1ccc(Nc2nccc(-c3cnn4nc(N5CCOCC5)ccc34)n2)cc1 (stereo not shown) [GW767488]
0

Request: Cc1n[nH]c2ccc(-c3cc(OC[C@@H](N)Cc4ccccc4)cnc3-c3ccoc3)cc12.O=C(O)C(F)(F)F.O=C(O)C(F)(F)F [GSK507358]
95.5

Request: "C[C@H]1Oc2cc(cnc2N)-c2c(nn(C)c2C#N)CN(C)C(=O)c2ccc(F)cc21"
0

Request: "O=C(NCCCN1CCOC1=O)c1cnc(NCc2cc(Cl)ccc2Cl)nc1NC1CCCC1"
14

Request: "CCN(CC)CCCCNc1ncc2cc(-c3c(Cl)cccc3Cl)c(NC(=O)NC(C)(C)C)nc2n1"
74

Request: CCN(CC)CCOc1ccc(Nc2ncc3cc(-c4c(Cl)cccc4Cl)c(=O)n(C)c3n2)cc1 [SB-601273]
22

Request: C=CC(=O)Nc1cc2c(Nc3ccc(F)c(Cl)c3)ncnc2cc1OCCCN1CCOCC1 [GW781483]
30

Request: Cl.Cl.NC[C@H](CC1CCCCC1)NC(=O)c1cc(Br)c(-c2ccnc3[nH]ccc23)s1 [GSK1581427]
96.6

Request: "Cc1cc(C(=O)Nc2ccc(Oc3ccc4nc(NC(=O)C5CC5)cn4n3)cc2)nn1-c1ccccc1"
0

* * *

tested on: PCTK2; construct: gene CDK17; settings: concentration: 1 μM,replicates: in singlicate; n = 1
Listed here: items and their measured %Inh.
Note: unit % is implicit; provide only the numeric part.

Here's what some known entries look like.
{"Compound": "NC(=O)c1cc(-c2ccccc2)cc2c(C3CCNCC3)c[nH]c12", "%Inh, %": 0}
{"Compound": "CN(C)CC(O)COc1ccc(Nc2nccc(-c3cnn4nc(N5CCOCC5)ccc34)n2)cc1 (centres unmarked)", "%Inh, %": 91.9}
{"Compound": "C[C@@H](Oc1cc(-c2cnn(C3CCNCC3)c2)cnc1N)c1c(Cl)ccc(F)c1Cl", "%Inh, %": 4}
{"Compound": "Cc1ccc(-n2nc(C(C)(C)C)cc2NC(=O)Nc2ccc(OCCN3CCOCC3)c3ccccc23)cc1", "%Inh, %": 13}
{"Compound": "O=C(NCCCN1CCOC1=O)c1cnc(NCc2cc(Cl)ccc2Cl)nc1NC1CCCC1", "%Inh, %": 0}
{"Compound": "CCN(CC)CCCCNc1ncc2cc(-c3c(Cl)cccc3Cl)c(NC(=O)NC(C)(C)C)nc2n1", "%Inh, %": 0}

Look up %Inh for this compound: "Cc1ccc2c(-c3ccncc3)c(-c3ccc(F)cc3)nn2c1.Cl"
0

Request: Cl.Cl.Nc1nc(-c2ccc3c(N)n[nH]c3c2)cc(N2CCCC(NC(=O)c3ccccc3)C2)n1 (centres unmarked)
21

* * *

tested on: WEE1; settings: concentration: 1 μM,replicates: in singlicate; n = 1
Outcome Measure: %Inh (%)
Note: unit % is implicit; provide only the numeric part.

Here's what some known entries look like.
{"Smiles Structure": "Cc1cc(C(=O)Nc2ccc(Oc3ccc4nc(NC(=O)C5CC5)cn4n3)cc2)nn1-c1ccccc1", "Experimental Target": "WEE1", "Units Text": "%", "Reported Measurement": 15}
{"Smiles Structure": "Cl.Oc1cc(-c2nc(-c3ccccc3)[nH]c2-c2ccncc2)ccc1Cl", "Experimental Target": "WEE1", "Units Text": "%", "Reported Measurement": 0}

From here, focus on the item given below.
Item "C[C@@H](Oc1cc(-c2cnn(C3CCNCC3)c2)cnc1N)c1c(Cl)ccc(F)c1Cl" with WEE1 - %Inh?
0

* * *

test system: PAK6; settings: concentration: 1 μM,replicates: in singlicate; n = 1
Listed here: items and their measured %Inh.
Note: unit % is implicit; provide only the numeric part.

Here's what some known entries look like.
{"Compound": "Cc1ccc(-n2nc(C(C)(C)C)cc2NC(=O)Nc2ccc(OCCN3CCOCC3)c3ccccc23)cc1", "%Inh / %": 12}
{"Compound": "C[C@@H](Oc1cc(-c2cnn(C3CCNCC3)c2)cnc1N)c1c(Cl)ccc(F)c1Cl", "%Inh / %": 0}
{"Compound": "Cl.Oc1cc(-c2nc(-c3ccccc3)[nH]c2-c2ccncc2)ccc1Cl", "%Inh / %": 5}
{"Compound": "CC(C)Nc1cc(-c2ccc3c(N)n[nH]c3c2)nc(N)n1", "%Inh / %": 0}

Look up %Inh for this compound: "C[C@H]1Oc2cc(cnc2N)-c2c(nn(C)c2C#N)CN(C)C(=O)c2ccc(F)cc21"
2

Request: "CNC(=O)c1ccccc1Sc1ccc2c(/C=C/c3ccccn3)n[nH]c2c1"
10

Request: "O=C(NCCCN1CCOC1=O)c1cnc(NCc2cc(Cl)ccc2Cl)nc1NC1CCCC1"
16

Request: "Cc1n[nH]c2ccc(-c3cc(OC[C@@H](N)Cc4ccccc4)cnc3-c3ccoc3)cc12.O=C(O)C(F)(F)F.O=C(O)C(F)(F)F"
3

* * *

system: AAK1; details: concentration: 1 μM,replicates: in singlicate; n = 1
Outcome Measure: %Inh (%)
Note: unit % is implicit; provide only the numeric part.

{"Molecule": "Cc1ccc2c(-c3ccncc3)c(-c3ccc(F)cc3)nn2c1.Cl", "Experimental Target": "AAK1", "%Inh [%]": 10}
{"Molecule": "CCN(CC)CCCCNc1ncc2cc(-c3c(Cl)cccc3Cl)c(NC(=O)NC(C)(C)C)nc2n1", "Experimental Target": "AAK1", "%Inh [%]": 13}

Item "Cc1ccc(-n2nc(C(C)(C)C)cc2NC(=O)Nc2ccc(OCCN3CCOCC3)c3ccccc23)cc1" with AAK1 - %Inh?
2

Request: "NC(=O)c1cc(-c2ccccc2)cc2c(C3CCNCC3)c[nH]c12"
9

Request: "C[C@@H]1CCN(C(=O)CC#N)C[C@@H]1N(C)c1ncnc2[nH]ccc12"
0

Request: "Cc1occc1-c1nc(N)c(OC[C@@H](N)Cc2c[nH]c3ccccc23)cc1-c1cc2c(C)n[nH]c2cn1"
68

Request: "Cc1n[nH]c2ccc(-c3cc(OC[C@@H](N)Cc4ccccc4)cnc3-c3ccoc3)cc12.O=C(O)C(F)(F)F.O=C(O)C(F)(F)F"
60

Request: "CN(C)CCOc1ccc(-c2cc(-c3c[nH]nc3-c3ccccn3)ccn2)cc1"
15

Request: "Cl.Cl.NC[C@H](CC1CCCCC1)NC(=O)c1cc(Br)c(-c2ccnc3[nH]ccc23)s1"
76

Request: "CNC(=O)c1ccccc1Sc1ccc2c(/C=C/c3ccccn3)n[nH]c2c1"
47

Request: "C[C@H]1Oc2cc(cnc2N)-c2c(nn(C)c2C#N)CN(C)C(=O)c2ccc(F)cc21"
0

Request: "CC(C)Nc1cc(-c2ccc3c(N)n[nH]c3c2)nc(N)n1"
75

Request: Cl.Cl.Nc1nc(-c2ccc3c(N)n[nH]c3c2)cc(N2CCCC(NC(=O)c3ccccc3)C2)n1 (stereo not shown)
76

Request: "Cl.Cl.NC[C@H](Cc1ccc(C(F)(F)F)cc1)NC(=O)c1cc(Br)c(-c2ccnc3[nH]ccc23)s1"
38

Request: "Cc1cc(C(=O)Nc2ccc(Oc3ccc4nc(NC(=O)C5CC5)cn4n3)cc2)nn1-c1ccccc1"
18

Request: "COc1ccc(C[C@@H](CN)NC(=O)c2cc(Br)c(-c3ccnc4[nH]ccc34)s2)cc1.Cl.Cl"
48
